- test_target: PD-1/PD-L1 interaction (Jurkat cells overexpressing PD-1 co-cultured with PD-L1 expressing CHO cells) (Homo sapiens, UniProt Q9NZQ7)
- Construct: Jurkat cells (PD-1 and NF-AT luciferase construct)
- Sequence (Q9NZQ7 19-290): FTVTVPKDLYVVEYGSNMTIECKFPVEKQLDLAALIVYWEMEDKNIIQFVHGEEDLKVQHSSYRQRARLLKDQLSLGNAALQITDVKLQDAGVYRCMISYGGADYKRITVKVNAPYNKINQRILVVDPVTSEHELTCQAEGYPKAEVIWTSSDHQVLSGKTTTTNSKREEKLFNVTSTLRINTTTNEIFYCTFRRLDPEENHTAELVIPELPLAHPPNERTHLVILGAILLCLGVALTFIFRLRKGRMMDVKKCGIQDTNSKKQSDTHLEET
- test: PD-1/PD-L1 NFAT Reporter Assay
- particulars: Table C-1; Jurkat/CHO co-culture, 6 hrs at 37° C., luciferase activity
Reported EC50 values for the following molecules.

[
  {
    "molecule": "O=C(O)C1CN([C@H]2CCc3cc(-c4cccc(-c5cccc(-c6ccc7c(c6)CC[C@@H]7N6CC(C(=O)O)C6)c5Cl)c4Cl)ccc32)C1 (single isomer, unassigned)",
    "EC50": "100 to 1000 nM"
  },
  {
    "molecule": "CCOC(=O)C1CN([C@H]2CCc3cc(-c4cccc(-c5cccc(-c6cc7c(c(OC)n6)[C@@H](NC[C@@H]6CCC(=O)N6)CC7)c5Cl)c4Cl)nc(OC)c32)C1 (single isomer, unassigned)",
    "EC50": "10 to 100 nM"
  },
  {
    "molecule": "CCOC(=O)C1CN([C@H]2CCc3cc(-c4cccc(-c5cccc(-c6ccc7c(c6)CC[C@@H]7N6CC(C(=O)O)C6)c5Cl)c4Cl)ccc32)C1 (single isomer, unassigned)",
    "EC50": "100 to 1000 nM"
  },
  {
    "molecule": "COc1nc(-c2cccc(-c3cccc(-c4cc5c(c(OC)n4)[C@@H](N4CC(C(=O)O)C4)CC5)c3Cl)c2Cl)cc2c1[C@@H](NC[C@@H]1CCC(=O)N1)CC2 (single isomer, unassigned)",
    "EC50": "≤ 10 nM"
  },
  {
    "molecule": "COc1nc(-c2cccc(-c3cccc(-c4cc5c(c(OC)n4)[C@H](N4CC6(CN(C(C)=O)C6)C4)CC5)c3Cl)c2F)cc2c1[C@H](N1CC3(CN(C(C)=O)C3)C1)CC2 (single isomer, unassigned)",
    "EC50": "≤ 10 nM"
  }
]

Provenance of the data: patent US11760764B2
